tested on: Yap1 mRNA; assay: Antisense inhibition of human Yap1 in A-431 cells by cEt gapmers, single dose (Example 4, RTS4814); format: cell-based; conditions: Yap1 mRNA remaining as percent of untreated control; 3-10-3 cEt gapmers; A-431 cells; Table 36
Strand notation (5' to 3'): a small letter for the sugar, then the base; units joined by * are phosphorothioate-linked, units joined directly phosphodiester-linked; [ ] holds rarer units or linkages, { } end groups; capitals alone tell only the bases. k = constrained ethyl (cEt); [5mC] = 5-methylcytosine; d = 2'-deoxy (DNA)
Output Condition met for records whose YAP1 (% UTC) is lower than 20 % UTC, Condition not met for records at or above 20 % UTC.

Asked: Identify whether the substance 1075318 (antisense kA*kT*k[5mC]*d[5mC]*dT*dA*dA*dA*dG*d[5mC]*d[5mC]*dA*d[5mC]*kT*kG*k[5mC]) [compound 1075318] records YAP1 (% UTC) below 20 % UTC.
Given back: Condition not met

Asked: Identify whether the substance 1075958 (k[5mC]*kA*kT*dT*dA*dT*dG*dA*d[5mC]*dA*dT*dT*d[5mC]*k[5mC]*k[5mC]*k[5mC]; antisense) [compound 1075958] records YAP1 (% UTC) below 20 % UTC.
Given back: Condition met

Asked: Identify whether the substance 1074230 (antisense kA*kA*kG*dA*dA*dG*dA*d[5mC]*dT*dG*dT*d[5mC]*dG*kA*kA*kG) [compound 1074230] records YAP1 (% UTC) below 20 % UTC.
Given back: Condition met

Asked: Identify whether the substance 1075734 (kA*kG*kG*d[5mC]*dA*dA*dT*dA*dA*d[5mC]*d[5mC]*dT*d[5mC]*kG*kA*kG; antisense) [compound 1075734] records YAP1 (% UTC) below 20 % UTC.
Given back: Condition not met

Asked: Identify whether the substance 1076566 (kA*kA*kT*dT*dA*d[5mC]*dA*dG*dT*dG*dT*d[5mC]*dT*k[5mC]*kA*k[5mC]; antisense) [compound 1076566] records YAP1 (% UTC) below 20 % UTC.
Given back: Condition not met

Asked: Identify whether the substance 1076182 (k[5mC]*kT*kA*dT*dA*dA*dT*dT*dA*dG*d[5mC]*d[5mC]*dA*kA*k[5mC]*k[5mC]; antisense) [compound 1076182] records YAP1 (% UTC) below 20 % UTC.
Given back: Condition met

Asked: Identify whether the substance 1074742 (kA*kA*kA*dG*dG*dA*d[5mC]*dT*d[5mC]*dT*dT*dA*dG*kG*kT*k[5mC]; antisense) [compound 1074742] records YAP1 (% UTC) below 20 % UTC.
Given back: Condition not met

Asked: Identify whether the substance 1074390 (k[5mC]*kT*kG*d[5mC]*dA*dG*dA*d[5mC]*dT*dT*dG*dG*d[5mC]*kA*kT*k[5mC]; antisense) [compound 1074390] records YAP1 (% UTC) below 20 % UTC.
Given back: Condition not met

Recorded values, source patent US11214803B2.
